The reported measurements were obtained from patent US7786141B2.

- testedOn: M1 muscarinic receptor (Homo sapiens)
- Construct: expressed in transfected cells; host or cells: CHO (M1-CHO)
- testDescription: Functional mobilization of intracellular calcium (FLIPR) in M1-CHO cells
- Type: cell-based
- experimentalConditions: Table 4; 100% efficacy is the maximum response obtained with the Carbachol control
Each record here notes measured Emax.
measuredMetric: Emax

[
  {
    "molecule": "CCOC(=O)N1CCC(N2CCC3(CC2)CN(C(=O)N2CCCCC2)c2ccccc23)CC1",
    "measuredMetric": "Emax",
    "readoutValue": "25 to 100%"
  },
  {
    "molecule": "CCC(C)(C)C1CCC(N2CCC3(CC2)CN(C(C)=O)c2ccc(F)cc23)CC1 (stereo not shown)",
    "measuredMetric": "Emax",
    "readoutValue": "< 25%"
  },
  {
    "molecule": "CC(=O)NC1CC2(CCN(CC3CC4C=CC3C4)CC2)c2ccc(C)cc21 (stereo not shown)",
    "measuredMetric": "Emax",
    "readoutValue": "25 to 100%"
  },
  {
    "molecule": "COC(=O)N1C2CCC1CC(N1CCC3(CC1)CN(C(C)=O)c1ccccc13)C2 (stereo not shown)",
    "measuredMetric": "Emax",
    "readoutValue": "25 to 100%"
  },
  {
    "molecule": "CCC#CCOC(=O)N1CC[C@H](CN2CCC3(CC2)CN(C(=O)N(C)C)c2ccc(F)cc23)C1",
    "measuredMetric": "Emax",
    "readoutValue": "25 to 100%"
  },
  {
    "molecule": "COc1cccc(N2CCC(N3CCC4(CC3)CN(C(=O)N(C)C)c3ccc(F)cc34)CC2)c1",
    "measuredMetric": "Emax",
    "readoutValue": "25 to 100%"
  },
  {
    "molecule": "CN(C)C(=O)N1CC2(CCN(C3CCN(C(=O)CCC(F)(F)F)CC3)CC2)c2cc(F)ccc21",
    "measuredMetric": "Emax",
    "readoutValue": "25 to 100%"
  },
  {
    "molecule": "CCOC(=O)N1CCCC(N2CCCC3(CC2)CN(C(C)=O)c2ccc(F)cc23)CC1 (stereo not shown)",
    "measuredMetric": "Emax",
    "readoutValue": "25 to 100%"
  },
  {
    "molecule": "C#CCOC(=O)N1CC[C@@H](CN2CCC3(CC2)CN(C(C)=O)c2cccc(C)c23)C1",
    "measuredMetric": "Emax",
    "readoutValue": "25 to 100%"
  },
  {
    "molecule": "C#CCCOC(=O)N1C2CCC1CC(N1CCC3(CC1)CN(C(C)=O)c1ccccc13)C2 (stereo not shown)",
    "measuredMetric": "Emax",
    "readoutValue": "25 to 100%"
  },
  {
    "molecule": "C#CCOC(=O)N1CC[C@H](CN2CCC3(CC2)CN(C(C)=O)c2ccccc23)C1",
    "measuredMetric": "Emax",
    "readoutValue": "> 100%"
  },
  {
    "molecule": "COC(=O)N1CC[C@@H](CN2CCC3(CC2)CN(C(C)=O)c2ccccc23)C1",
    "measuredMetric": "Emax",
    "readoutValue": "25 to 100%"
  },
  {
    "molecule": "CC(=O)N[C@@H]1CC2(CCN(C3CCOCC3)CC2)c2ccccc21",
    "measuredMetric": "Emax",
    "readoutValue": "< 25%"
  },
  {
    "molecule": "CCOC(=O)N1CCC(N2CCC3(CC2)CN(C(=O)Nc2ccccc2)c2ccccc23)CC1",
    "measuredMetric": "Emax",
    "readoutValue": "> 100%"
  },
  {
    "molecule": "CC(=O)N1CC2(CCN(C[C@H]3CCN(C(=O)OC(C)C)C3)CC2)c2ccccc21",
    "measuredMetric": "Emax",
    "readoutValue": "< 25%"
  },
  {
    "molecule": "O=C(N[C@H]1CC2(CCN(C3CCCCC3)CC2)c2ccccc21)C1CC1",
    "measuredMetric": "Emax",
    "readoutValue": "25 to 100%"
  },
  {
    "molecule": "CN(C)C(=O)N1CC2(CCN(C3CCN(c4nccs4)CC3)CC2)c2cc(F)ccc21",
    "measuredMetric": "Emax",
    "readoutValue": "25 to 100%"
  },
  {
    "molecule": "CN(C)C(=O)N1CC2(CCN(C3CCN(c4ccccc4F)CC3)CC2)c2cc(F)ccc21",
    "measuredMetric": "Emax",
    "readoutValue": "25 to 100%"
  },
  {
    "molecule": "C#CCOC(=O)N1CCC(N2CCC3(CC2)CN(C(C)=O)c2cccc(C)c23)CC1",
    "measuredMetric": "Emax",
    "readoutValue": "25 to 100%"
  },
  {
    "molecule": "CN(C)C(=O)N1CC2(CCN(C[C@@H]3CCN(c4cnccn4)C3)CC2)c2cc(F)ccc21",
    "measuredMetric": "Emax",
    "readoutValue": "25 to 100%"
  },
  {
    "molecule": "CN(C)C(=O)N1CC2(CCN(C3CCN(C(=O)OCC(F)F)CC3)CC2)c2cc(F)ccc21",
    "measuredMetric": "Emax",
    "readoutValue": "25 to 100%"
  },
  {
    "molecule": "Cc1ccc2c(c1)C1(CCN(CC3CC4CCC(C4)C3)CC1)CN2 (stereo not shown)",
    "measuredMetric": "Emax",
    "readoutValue": "< 25%"
  },
  {
    "molecule": "Cc1ccc2c(c1)C1(CCN(C3CC4CCC3C4)CC1)CN2C(=O)c1ccccn1 (stereo not shown)",
    "measuredMetric": "Emax",
    "readoutValue": "25 to 100%"
  },
  {
    "molecule": "Cc1cc(C(=O)N2CCC(N3CCC4(CC3)CN(C(=O)N(C)C)c3ccc(F)cc34)CC2)no1",
    "measuredMetric": "Emax",
    "readoutValue": "< 25%"
  },
  {
    "molecule": "CC(=O)N[C@H]1CCC2(CCN(CC3CCCC3)CC2)c2ccccc21",
    "measuredMetric": "Emax",
    "readoutValue": "25 to 100%"
  }
]

====

This listing pairs compounds with measured Emax.
- testedOn: M1 muscarinic receptor (Homo sapiens, UniProt P11229)
- Construct: expressed in transfected cells; host or cells: CHO (M1-CHO)
- Sequence (P11229 1-460): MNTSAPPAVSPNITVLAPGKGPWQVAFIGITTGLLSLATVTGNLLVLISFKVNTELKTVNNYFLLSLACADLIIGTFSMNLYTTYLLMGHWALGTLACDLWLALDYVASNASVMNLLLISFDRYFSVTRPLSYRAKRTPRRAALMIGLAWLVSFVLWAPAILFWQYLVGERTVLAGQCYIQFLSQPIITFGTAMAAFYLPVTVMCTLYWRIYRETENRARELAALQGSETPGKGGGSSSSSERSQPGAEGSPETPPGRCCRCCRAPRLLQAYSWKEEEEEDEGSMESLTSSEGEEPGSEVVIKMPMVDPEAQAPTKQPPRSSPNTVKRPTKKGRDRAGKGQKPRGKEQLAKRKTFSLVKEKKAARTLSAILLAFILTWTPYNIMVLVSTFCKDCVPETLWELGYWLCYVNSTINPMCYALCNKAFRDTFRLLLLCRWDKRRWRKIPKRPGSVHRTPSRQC
- testDescription: Functional mobilization of intracellular calcium (FLIPR) in M1-CHO cells
- Assay type: cell-based
- experimentalConditions: Table 4; 100% efficacy is the maximum response obtained with the Carbachol control

[
  {
    "compound": "CCCC(=O)N[C@H]1CC2(CCN(C[C@@H]3C[C@H]4C=CC3C4)CC2)c2ccccc21",
    "Emax": "25 to 100%"
  },
  {
    "compound": "CC(=O)NC1CC2(CCN(C3CCCC3)CC2)c2ccccc21 (stereo not shown)",
    "Emax": "25 to 100%"
  },
  {
    "compound": "CC(=O)N1CC2(CCN(C3CCN(c4cncc(C)n4)CC3)CC2)c2ccccc21",
    "Emax": "25 to 100%"
  },
  {
    "compound": "CCOC(=O)N1CCC(N2CCC3(CC2)CN(C(C)=O)c2c(-c4ccccc4C)cccc23)CC1",
    "Emax": "< 25%"
  },
  {
    "compound": "CC(=O)N1CC2(CCN(C[C@@H]3CCN(c4cnccn4)C3)CC2)c2c(C)cccc21",
    "Emax": "25 to 100%"
  },
  {
    "compound": "CC(=O)CN1CC2(CCN(C3CC4CCC(C4)C3)CC2)c2cc(F)ccc21 (stereo not shown)",
    "Emax": "25 to 100%"
  },
  {
    "compound": "COc1ccc(CC(=O)N2CCC(N3CCC4(CC3)CN(C(=O)N(C)C)c3ccc(F)cc34)CC2)cc1",
    "Emax": "< 25%"
  }
]
